- TEST_SYSTEM: Proteinase-activated receptor 1 (Homo sapiens, UniProt P25116)
- Sequence (P25116 whole entry): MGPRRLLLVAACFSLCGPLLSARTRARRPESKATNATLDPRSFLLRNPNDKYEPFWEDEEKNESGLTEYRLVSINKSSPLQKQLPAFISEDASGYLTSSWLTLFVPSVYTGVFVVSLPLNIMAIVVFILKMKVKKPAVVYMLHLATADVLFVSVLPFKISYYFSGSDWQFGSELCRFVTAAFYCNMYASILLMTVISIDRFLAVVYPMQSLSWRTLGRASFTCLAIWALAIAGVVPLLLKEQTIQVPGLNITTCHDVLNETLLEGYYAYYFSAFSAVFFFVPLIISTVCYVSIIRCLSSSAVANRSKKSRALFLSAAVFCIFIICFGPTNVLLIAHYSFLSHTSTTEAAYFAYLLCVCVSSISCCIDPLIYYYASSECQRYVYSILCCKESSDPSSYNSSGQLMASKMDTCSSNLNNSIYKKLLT
Starred links: 1 amine or outer side, 2 acyl side, 3 side chain; linkers in the order of their positions; H or OH if unused. Non-standard residues stand in square brackets, D forms with d. Residues, ends and D or L forms follow the SMILES beside them. *: point of attachment. X8 = C#CC(=O)c1cccc(N([C@@H](Cc2ccc(F)cc2)C(=O)[*:2])[*:1])c1; X3 = CC(=O)N(C(=O)/C=C/c1ccccc1)[C@@H](Cc1ccc(F)cc1)C(=O)*; Phe(4-guanidino) = N=C(N)Nc1ccc(C[C@H](N)C(=O)O)cc1; Orn = NCCC[C@H](N)C(=O)O
OUTCOME_MEASURE: pIC50
In plain terms, pIC50 is the concentration in mol/L turned into minus its base-10 logarithm.

• CC(=O)N(C(=O)/C=C/c1ccccc1)[C@@H](Cc1ccc(F)cc1)C(=O)N[C@@H](Cc1ccc(NC(=N)N)cc1)C(=O)N[C@@H](CC(C)C)C(=O)N[C@@H](CCCN=C(N)N)C(=O)N[C@@H](CCCN)C(N)=O (X3-[Phe(4-guanidino)]LR[Orn]-NH2) = 8.18

Task item: Retrieve pIC50 on Proteinase-activated receptor 1 (Homo sapiens, UniProt P25116); query C#CC(=O)c1cccc(N(C(C)=O)[C@@H](Cc2ccc(F)cc2)C(=O)N[C@@H](Cc2ccc(NC(=N)N)cc2)C(=O)N[C@@H](CC(C)C)C(=O)N[C@@H](CCCN=C(N)N)C(=O)N[C@@H](CCCN=C(N)N)C(N)=O)c1 (Ac-[X8][Phe(4-guanidino)]LRR-NH2)
Reply: 8.40

Task item: Retrieve pIC50 on Proteinase-activated receptor 1 (Homo sapiens, UniProt P25116); query `CC(=O)N(c1ccccc1F)[C@@H](Cc1ccc(F)cc1)C(=O)N[C@@H](Cc1ccc(NC(=N)N)cc1)C(=O)N[C@@H](CC(C)C)C(=O)N[C@@H](CCCN=C(N)N)C(N)=O`
Reply: 6.25

Task item: Retrieve pIC50 on Proteinase-activated receptor 1 (Homo sapiens, UniProt P25116); query CC(=O)N(C(=O)/C=C/c1ccc(F)cc1)[C@@H](Cc1ccc(F)cc1)C(=O)N[C@@H](Cc1ccc(NC(=N)N)cc1)C(=O)N[C@@H](CC(C)C)C(=O)N[C@@H](CCCN=C(N)N)C(N)=O (stereo in doubt; 62)
Reply: 7.64
